Target: T1, EsCas13d, nuclease-dead (Eubacterium siraeum, UniProt B0MS50, R295A;H300A;R849A;H854A)
T1 sequence: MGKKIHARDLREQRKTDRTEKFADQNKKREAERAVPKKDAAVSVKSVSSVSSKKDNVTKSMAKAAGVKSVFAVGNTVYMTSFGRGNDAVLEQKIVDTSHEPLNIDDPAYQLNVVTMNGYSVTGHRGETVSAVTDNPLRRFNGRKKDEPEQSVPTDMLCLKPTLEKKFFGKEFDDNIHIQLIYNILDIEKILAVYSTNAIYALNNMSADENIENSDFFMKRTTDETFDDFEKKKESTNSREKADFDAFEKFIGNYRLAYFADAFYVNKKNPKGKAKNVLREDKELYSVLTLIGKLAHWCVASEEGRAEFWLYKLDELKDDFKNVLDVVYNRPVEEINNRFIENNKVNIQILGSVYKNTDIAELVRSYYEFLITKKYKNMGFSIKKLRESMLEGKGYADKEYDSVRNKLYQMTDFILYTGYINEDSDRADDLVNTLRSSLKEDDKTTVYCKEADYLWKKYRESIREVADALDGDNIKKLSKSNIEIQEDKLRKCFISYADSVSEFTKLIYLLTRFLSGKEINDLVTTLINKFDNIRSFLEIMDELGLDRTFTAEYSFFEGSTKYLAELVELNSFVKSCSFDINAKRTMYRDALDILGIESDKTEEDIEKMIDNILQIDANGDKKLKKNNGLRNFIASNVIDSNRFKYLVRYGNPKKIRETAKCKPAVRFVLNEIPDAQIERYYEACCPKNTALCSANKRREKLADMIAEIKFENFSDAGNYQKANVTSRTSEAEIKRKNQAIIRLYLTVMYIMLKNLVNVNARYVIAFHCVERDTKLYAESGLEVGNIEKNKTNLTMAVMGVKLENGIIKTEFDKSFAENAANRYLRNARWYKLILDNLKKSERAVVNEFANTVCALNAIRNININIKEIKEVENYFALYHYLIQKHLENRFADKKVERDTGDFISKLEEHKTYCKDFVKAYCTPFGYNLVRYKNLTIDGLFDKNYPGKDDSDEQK
Test: crRNA (strand 1, pre-loaded); Mg2+; 40 mM Tris-HCl pH 7.5, 150 mM NaCl, 6 mM MgCl2, 1 mM DTT, 0.1% Tween-20, 0.2 mg/ml BSA; 25 C; 10 min per concentration, then washed
Details: tags: His6-TwinStrep-SUMO cleaved; N-terminal SNAP kept (SNAP-Surface 488); label: 3' end held by stalled T7 RNA polymerase
MEASURED PROPERTY: log10 Kd (log10 of the value in nM)
Units before log transform: nM; reported quantity: Kd; transform: log10.

Check out these entries, answers already filled in.
target 1 insA 3' of 10,insG 3' of 9 (mixed) RNA 1: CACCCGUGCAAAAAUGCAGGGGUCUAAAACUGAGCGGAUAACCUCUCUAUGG RNA 2: GGGAAUGGAUCCACAUCUACGAAUUCGUACCAUAGAGAGGUUAAGUCCGCUCACCGAGAUCGGAAGAGCACACGU : 1.26
target 1 MT 5'PFS GUU 3'PFS UUA (mixed) RNA 1: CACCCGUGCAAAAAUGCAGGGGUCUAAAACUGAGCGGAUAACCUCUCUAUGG RNA 2: GGGAAUGGAUCCACAUCUACGAAUUCGUUCCAUAGAGAGGUUAUCCGCUCAUUAAGAUCGGAAGAGCACACGU : 1.12
target 2 MT 5'PFS GUU 3'PFS AAG (mixed) RNA 1: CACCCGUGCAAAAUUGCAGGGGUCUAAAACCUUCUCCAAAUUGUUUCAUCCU RNA 2: GGGAAUGGAUCCACAUCUACGAAUUCGUUAGGAUGAAACAAUUUGGAGAAGAAGAGAUCGGAAGAGCACACGU : 0.97
target 2 MT 5'PFS UCG 3'PFS AAG (mixed) RNA 1: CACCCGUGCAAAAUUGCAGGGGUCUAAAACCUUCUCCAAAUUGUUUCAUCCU RNA 2: GGGAAUGGAUCCACAUCUACGAAUUCUCGAGGAUGAAACAAUUUGGAGAAGAAGAGAUCGGAAGAGCACACGU : 1.51
target 1 insG 3' of 11,insG 3' of 6 (mixed) RNA 1: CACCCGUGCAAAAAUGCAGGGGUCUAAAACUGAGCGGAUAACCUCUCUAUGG RNA 2: GGGAAUGGAUCCACAUCUACGAAUUCGUACCAUAGAGAGGUGUAUCCGGCUCACCGAGAUCGGAAGAGCACACGU : 1.59

Q. Answer with the recorded log10 Kd for the binder listed here: target 1 insA 3' of 4,insG 3' of 4 (mixed) RNA 1: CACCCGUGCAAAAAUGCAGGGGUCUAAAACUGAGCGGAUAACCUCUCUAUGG RNA 2: GGGAAUGGAUCCACAUCUACGAAUUCGUACCAUAGAGAGGUUAUCCGCAGUCACCGAGAUCGGAAGAGCACACGU
A. 0.73

Q. Answer with the recorded log10 Kd for the binder listed here: target 1 U11C,G17U (mixed) RNA 1: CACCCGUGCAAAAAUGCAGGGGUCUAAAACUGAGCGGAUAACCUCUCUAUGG RNA 2: GGGAAUGGAUCCACAUCUACGAAUUCGUACCAUAUAGAGGCUAUCCGCUCACCGAGAUCGGAAGAGCACACGU
A. 1.81

Q. Answer with the recorded log10 Kd for the binder listed here: target 1 insC 3' of 11,insC 3' of 5 (mixed) RNA 1: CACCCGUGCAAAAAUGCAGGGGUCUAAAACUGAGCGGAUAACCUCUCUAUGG RNA 2: GGGAAUGGAUCCACAUCUACGAAUUCGUACCAUAGAGAGGUCUAUCCGCCUCACCGAGAUCGGAAGAGCACACGU
A. 1.26
